Molecular target: Blk(m) (Mus musculus, UniProt P16277)
Construct: purchased Upstate Biotechnology (Dundee, UK), KinaseProfiler service
Sequence (P16277 whole entry): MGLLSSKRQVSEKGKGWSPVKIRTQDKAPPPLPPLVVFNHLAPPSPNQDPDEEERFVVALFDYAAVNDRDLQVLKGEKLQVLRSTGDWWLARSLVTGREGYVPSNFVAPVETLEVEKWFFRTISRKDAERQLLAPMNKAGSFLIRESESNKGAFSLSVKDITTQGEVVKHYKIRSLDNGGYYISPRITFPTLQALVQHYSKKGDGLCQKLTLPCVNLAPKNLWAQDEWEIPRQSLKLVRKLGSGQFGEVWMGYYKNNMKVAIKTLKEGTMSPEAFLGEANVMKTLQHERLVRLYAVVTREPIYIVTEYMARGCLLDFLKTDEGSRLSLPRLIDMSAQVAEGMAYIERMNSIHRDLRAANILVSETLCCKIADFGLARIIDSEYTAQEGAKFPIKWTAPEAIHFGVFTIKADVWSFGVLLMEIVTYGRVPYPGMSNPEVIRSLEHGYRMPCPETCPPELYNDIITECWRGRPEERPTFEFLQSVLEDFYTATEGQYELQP
Assay: Upstate KinaseProfiler enzyme assay, Blk
Format: biochemical
Conditions: 500 nM compound; read-out: Percent inhibition at 500 nM Blk(m)
Experimental: Further enzyme assays were conducted at Upstate Biotechnology (Dundee, UK) in the KinaseProfiler™ Assay system. The general protocol is as follows. All kinases are pre-diluted to a 10× working concentration prior to addition into the assay. The composition of the dilution buffer for the kinases is 20 mM MOPS pH 7.0, 1 mM EDTA, 0.1% β-mercaptoethanol, 0.01% Brij-35, 5% glycerol, 1 mg/ml BSA. All substrates are dissolved and diluted to working stocks in de-ionised water.
Collected inhibition at 0.5 µM values appear next to each entry.
Report the figure in % without appending any unit label.

Consider the reported inhibition at 0.5 µM for these molecules:
• C=CC(=O)Nc1ccc(Sc2ccnc(Nc3ccc(N4CCOCC4)cc3)n2)cc1 = 71
• C=CC(=O)Nc1ccc(Sc2nc(Nc3ccc(N4CCC(C(=O)OCC)CC4)cc3)ncc2C)cc1 = 10
• C=CC(=O)Nc1ccc(Sc2ccnc(Nc3ccc(S(N)(=O)=O)cc3)n2)cc1 = 100

Would you kindly look at the next entry?
// query Give the reported inhibition at 0.5 µM for C=CC(=O)Nc1ccc(Sc2ccnc(Nc3ccc(F)c(C#N)c3)n2)cc1 (system: Blk(m) (Mus musculus, UniProt P16277)).
// result 100

====

# UniProt:P23458: IC50 values follow
# Sequence (P23458 875-1153 limits assumed): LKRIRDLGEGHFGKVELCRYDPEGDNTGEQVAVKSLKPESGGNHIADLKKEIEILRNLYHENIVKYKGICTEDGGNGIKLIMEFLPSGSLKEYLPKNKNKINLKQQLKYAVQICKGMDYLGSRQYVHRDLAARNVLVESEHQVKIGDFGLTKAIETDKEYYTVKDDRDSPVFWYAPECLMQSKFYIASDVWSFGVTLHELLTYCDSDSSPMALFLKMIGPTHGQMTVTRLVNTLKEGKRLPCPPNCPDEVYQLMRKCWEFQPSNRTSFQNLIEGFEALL

Consider the reported IC50 for these molecules:
- N#Cc1nnnn1Cc1ccc(Sc2ccnc(Nc3ccc(N4CCOCC4)cc3)n2)cc1: > 1000 nM
- C=CC(=O)Nc1ccc(Sc2nc(Nc3ccc(N4CCN(C)CC4)cc3)ncc2C)cc1: < 500 nM
- C=CC(=O)Nc1cccc(Sc2ccnc(Nc3cccc(N4CCOCC4)c3)n2)c1: > 1000 nM
- C=CC(=O)Nc1ccc(Sc2nc(Nc3ccc(NS(C)(=O)=O)c(OC)c3)ncc2C)cc1: > 1000 nM
- C=CC(=O)Nc1ccc(Sc2nc(Nc3ccc(N4CCOCC4)c(OC)c3)ncc2C)cc1: > 1000 nM
- C=CC(=O)Nc1ccc(Sc2ccnc(Nc3cccc(N4CCOCC4)c3)n2)cc1: > 1000 nM
- OCc1cccc(Sc2ccnc(Nc3ccc(N4CCOCC4)cc3)n2)c1: > 1000 nM
- Nc1ccc(Sc2ccnc(Nc3ccc(N4CCOCC4)cc3)n2)cc1: < 1000 nM
- Cc1cc(N)ccc1Sc1nc(Nc2ccc(N3CCOCC3)cc2)ncc1C: < 500 nM
- C=CC(=O)Nc1ccc(Sc2nc(Nc3ccc(OC)c(NS(C)(=O)=O)c3)ncc2C)cc1: > 1000 nM

// query Please give the measured IC50 for this molecule: NCc1cccc(Sc2ccnc(Nc3ccc(N4CCOCC4)cc3)n2)c1
// result < 500 nM

// query Also C=CC(=O)Nc1cccc(Sc2ccnc(Nc3ccc(N4CCOCC4)cc3)n2)c1 ?
// result > 1000 nM

// query Also C=CC(=O)Nc1ccc(Sc2ccnc(Nc3ccc(N4CCOCC4)cc3)n2)cc1OC ?
// result > 1000 nM

// query Also C=CC(=O)N(C)c1ccc(Sc2nc(Nc3ccc(N4CCOCC4)cc3)ncc2Br)cc1 ?
// result > 1000 nM

// query Also Cc1cnc(Nc2ccc(N3CCOCC3)cc2)nc1Sc1ccc(NC(=O)/C=C\C(=O)O)cc1 ?
// result > 1000 nM

// query Also Cc1cnc(Nc2cccc(O)c2)nc1Sc1ccc(NC(=O)CCl)cc1 ?
// result > 1000 nM

// query Also C=CC(=O)N(C)c1ccc(Sc2nc(Nc3ccc(N4CCOCC4)cc3)ncc2C)cc1 ?
// result < 500 nM

====

Target: BaF3 TELJAK3 cells (Homo sapiens)
Construct: fused on or other part: TEL (ETV6) N-terminal part, coding nucleotides 1-487, serves as the oligomerising partner; It is fused through a Sal I site to the JAK3 kinase domain and expressed from pTRE2 in BaF3 cells bearing pTET-off; P41212 (Transcription factor ETV6)
Test: Cellular screening, BaF3 TEL:JAK3 cells, Alamar Blue
Type: cell-based
Conditions: 40 hr, read-out: BafT_J3 IC50_nM
VALUE KIND: GI50

• C=CC(=O)Nc1ccc(Sc2nc(Nc3ccc(N4CCOCC4)cc3)ncc2C)cc1 = < 1000 nM
• O=C(/C=C/Cl)Nc1ccc(Sc2ccnc(Nc3ccc(N4CCOCC4)cc3)n2)cc1 = < 5000 nM
• C=CC(=O)Nc1cccc(Sc2ccnc(Nc3cccc(N4CCOCC4)c3)n2)c1 = < 1000 nM

Would you kindly look at the next entry?
// query Give the reported GI50 for C=CC(=O)Nc1ccc(Sc2nc(Nc3cccc(OC)c3)ncc2C)cc1 (system: BaF3 TELJAK3 cells (Homo sapiens)).
// result < 1000 nM

====

Target: Flt 4(h) (Homo sapiens, UniProt P35916)
Construct: purchased Upstate Biotechnology (Dundee, UK), KinaseProfiler service
Sequence (P35916 25-1363): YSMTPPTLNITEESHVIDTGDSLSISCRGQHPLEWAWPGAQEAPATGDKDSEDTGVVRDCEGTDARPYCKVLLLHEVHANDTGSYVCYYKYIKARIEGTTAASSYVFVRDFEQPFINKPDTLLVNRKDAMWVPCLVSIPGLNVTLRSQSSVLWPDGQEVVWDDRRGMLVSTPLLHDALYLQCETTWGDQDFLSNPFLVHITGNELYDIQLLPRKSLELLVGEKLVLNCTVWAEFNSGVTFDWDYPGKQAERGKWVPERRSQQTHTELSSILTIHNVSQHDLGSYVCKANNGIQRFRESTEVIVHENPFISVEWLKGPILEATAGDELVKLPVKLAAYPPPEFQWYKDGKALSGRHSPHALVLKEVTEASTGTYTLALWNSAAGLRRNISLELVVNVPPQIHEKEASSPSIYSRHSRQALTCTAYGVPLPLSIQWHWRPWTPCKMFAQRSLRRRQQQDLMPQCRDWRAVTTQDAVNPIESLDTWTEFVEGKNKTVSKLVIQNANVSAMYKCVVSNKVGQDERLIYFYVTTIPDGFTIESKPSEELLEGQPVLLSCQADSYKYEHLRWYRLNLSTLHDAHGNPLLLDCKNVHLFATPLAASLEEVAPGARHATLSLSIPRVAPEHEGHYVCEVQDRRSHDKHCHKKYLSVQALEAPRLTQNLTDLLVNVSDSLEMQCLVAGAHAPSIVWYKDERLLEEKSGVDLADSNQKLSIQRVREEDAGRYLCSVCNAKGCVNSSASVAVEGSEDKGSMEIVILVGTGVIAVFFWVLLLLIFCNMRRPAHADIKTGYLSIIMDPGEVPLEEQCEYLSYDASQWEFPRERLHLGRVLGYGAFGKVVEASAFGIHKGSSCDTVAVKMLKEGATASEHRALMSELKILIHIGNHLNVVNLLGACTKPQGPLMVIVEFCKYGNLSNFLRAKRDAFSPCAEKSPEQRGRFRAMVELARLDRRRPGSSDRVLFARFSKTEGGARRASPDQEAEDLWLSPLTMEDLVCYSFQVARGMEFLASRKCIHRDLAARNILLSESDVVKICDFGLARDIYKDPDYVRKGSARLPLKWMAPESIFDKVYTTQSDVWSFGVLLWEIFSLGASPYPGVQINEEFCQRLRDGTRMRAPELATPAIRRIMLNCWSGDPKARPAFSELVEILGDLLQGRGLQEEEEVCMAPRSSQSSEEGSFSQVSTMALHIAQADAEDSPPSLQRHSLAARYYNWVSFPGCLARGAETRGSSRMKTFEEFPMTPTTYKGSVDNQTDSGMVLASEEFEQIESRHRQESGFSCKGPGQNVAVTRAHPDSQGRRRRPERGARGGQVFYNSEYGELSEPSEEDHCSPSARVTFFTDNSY
Test: Upstate KinaseProfiler enzyme assay, Flt 4
Format: biochemical
Settings: 500 nM compound; read-out: Percent inhibition at 500 nM Flt 4(h)
VALUE KIND: inhibition at 0.5 µM (%)
Report the figure in % without appending any unit label.

// query Give the reported inhibition at 0.5 µM for C=CC(=O)Nc1ccc(Sc2nc(Nc3ccc(N4CCC(CO)CC4)cc3)ncc2C)cc1 (system: Flt 4(h) (Homo sapiens, UniProt P35916)).
// result 100

// query Also C=CC(=O)Nc1ccc(Sc2nc(Nc3ccc(OCCCN(CC)CC)cc3)ncc2C)cc1 ?
// result 100

// query Also CC#CC(=O)Nc1ccc(Sc2ccnc(Nc3cccc(N4CCOCC4)c3)n2)cc1 ?
// result 99

// query Also N#Cc1nnn(Cc2ccc(Sc3ccnc(Nc4ccc(N5CCOCC5)cc4)n3)cc2)n1 ?
// result 94

====

Biological target: Blk(m) (Mus musculus)
Construct: purchased Upstate Biotechnology (Dundee, UK), KinaseProfiler service
Assay: Upstate KinaseProfiler enzyme assay, Blk
Format: biochemical
Details: 500 nM compound; read-out: Percent inhibition at 500 nM Blk(m)
VALUE KIND: inhibition at 0.5 µM (%)
Report the figure in % without appending any unit label.

Consider the reported inhibition at 0.5 µM for these molecules:
• C=CC(=O)Nc1ccc(Sc2ccnc(Nc3cccc(C(=O)OC)c3)n2)cc1 [Compound 356] = 100
• C=CC(=O)N1CCc2cc(Sc3nc(Nc4ccc(N5CCOCC5)cc4)ncc3C)ccc21 [Compound 170] = 96
• C=CC(=O)Nc1ccc(Sc2nc(Nc3cccc(N4CCOCC4)c3)ncc2F)cc1 [Compound 267] = 96
• N#Cc1ncn(Cc2ccc(Sc3ccnc(Nc4ccc(N5CCOCC5)cc4)n3)cc2)c1C#N [Compound 201] = 100
• C=CC(=O)Nc1ccc(Sc2nc(Nc3cccc(NS(C)(=O)=O)c3)ncc2C)cc1 [Compound 288] = 99
• C=CC(=O)Nc1ccc(Sc2ccnc(Nc3ccc(N4CCOCC4)cc3)n2)c(Cl)c1C [Compound 161] = 100
• Cc1cnc(Nc2ccc(N3CCOCC3)cc2)nc1Sc1ccc(N)cc1 [Compound 126] = 43

Would you kindly look at the next entry?
// query Give the reported inhibition at 0.5 µM for C/C=C/C(=O)Nc1ccc(Sc2ccnc(Nc3ccc(N4CCOCC4)cc3)n2)cc1 [Compound 59] (system: Blk(m) (Mus musculus)).
// result 100

====

Collected GI50 values appear next to each entry.
Molecular target: BaF3 TELJAK3 cells (Homo sapiens, UniProt P52333)
Construct: fused on or other part: TEL (ETV6) N-terminal part, coding nucleotides 1-487, serves as the oligomerising partner; It is fused through a Sal I site to the JAK3 kinase domain and expressed from pTRE2 in BaF3 cells bearing pTET-off; P41212 (Transcription factor ETV6)
Sequence (P52333 1-1124): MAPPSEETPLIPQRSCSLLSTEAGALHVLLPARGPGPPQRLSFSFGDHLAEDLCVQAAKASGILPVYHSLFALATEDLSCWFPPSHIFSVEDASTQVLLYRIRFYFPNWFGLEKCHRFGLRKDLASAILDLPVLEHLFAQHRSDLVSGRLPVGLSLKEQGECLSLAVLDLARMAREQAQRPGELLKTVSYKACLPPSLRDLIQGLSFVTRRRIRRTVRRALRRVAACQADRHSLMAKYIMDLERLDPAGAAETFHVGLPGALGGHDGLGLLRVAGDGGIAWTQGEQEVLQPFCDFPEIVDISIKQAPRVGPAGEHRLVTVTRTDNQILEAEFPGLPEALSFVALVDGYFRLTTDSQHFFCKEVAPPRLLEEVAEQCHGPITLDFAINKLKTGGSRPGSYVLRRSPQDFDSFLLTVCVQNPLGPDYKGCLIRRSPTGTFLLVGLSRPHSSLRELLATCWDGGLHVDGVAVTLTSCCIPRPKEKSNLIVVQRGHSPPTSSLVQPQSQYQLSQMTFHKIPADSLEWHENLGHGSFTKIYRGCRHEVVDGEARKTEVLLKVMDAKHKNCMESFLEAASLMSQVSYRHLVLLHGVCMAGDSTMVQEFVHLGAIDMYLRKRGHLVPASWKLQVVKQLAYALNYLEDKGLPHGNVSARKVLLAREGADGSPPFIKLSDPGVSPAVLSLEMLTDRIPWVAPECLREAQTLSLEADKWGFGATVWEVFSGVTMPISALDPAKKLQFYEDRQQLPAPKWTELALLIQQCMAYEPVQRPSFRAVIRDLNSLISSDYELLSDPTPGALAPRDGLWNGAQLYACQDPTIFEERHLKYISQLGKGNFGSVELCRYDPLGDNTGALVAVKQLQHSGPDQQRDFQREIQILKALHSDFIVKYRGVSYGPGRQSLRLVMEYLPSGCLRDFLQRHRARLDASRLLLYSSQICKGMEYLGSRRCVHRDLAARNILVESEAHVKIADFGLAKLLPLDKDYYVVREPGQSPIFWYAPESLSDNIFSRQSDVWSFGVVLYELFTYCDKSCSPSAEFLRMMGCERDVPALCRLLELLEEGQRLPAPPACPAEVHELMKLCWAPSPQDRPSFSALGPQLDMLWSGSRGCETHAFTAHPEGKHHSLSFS
Test: Cellular screening, BaF3 TEL:JAK3 cells, Alamar Blue
Type: cell-based
Conditions: 40 hr, read-out: BafT_J3 IC50_nM

Consider the reported GI50 for these compounds:
* N#Cc1nnn(Cc2ccc(Sc3ccnc(Nc4ccc(N5CCOCC5)cc4)n3)cc2)n1 [Compound 156] | < 5 µM
* C=CC(=O)Nc1ccc(Sc2ccnc(Nc3cccc(C#N)c3)n2)cc1 [Compound 118] | < 5 µM
* C=CC(=O)Nc1ccc(Sc2nc(Nc3ccc(N4CCOCC4)nc3)ncc2C)cc1 [Compound 254] | < 1 µM

// query Please give the measured GI50 for this compound: Cc1cnc(Nc2ccc(N3CCOCC3)cc2)nc1Sc1ccc(N)nc1 [Compound 262]
// result > 20 µM

// query Also N#CCC(=O)Nc1ccc(Sc2ccnc(Nc3ccc(N4CCC(N5CCCC5)CC4)cc3)n2)cc1 [Compound 88] ?
// result < 5 µM

// query Also C=CC(=O)Nc1ccc(Sc2ccnc(Nc3ccc(S(=O)(=O)N4CCN(C)CC4)cc3)n2)cc1 [Compound 370] ?
// result < 5 µM

// query Also C=CC(=O)Nc1ccc(Sc2nc(Nc3ccc(N4CCOCC4)cc3)ncc2I)cc1 [Compound 313] ?
// result < 1 µM

// query Also C=CC(=O)NCc1cccc(Sc2ccnc(Nc3ccc(N4CCOCC4)cc3)n2)c1 [Compound 112] ?
// result < 20 µM
